Assay: Cytotoxicity counterscreen for NFkB agonists and antagonists (AID 624476);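 note: cells exposed to compound for 48 hours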
Conditions: NFkB reporter cell line viability counterscreen; series mostly up to 46.1 µM
Results filed as inconclusive are left out. Activity calls are given as the source filed them. Calls come from the whole dose curve; as a rule, active = well fitted curve in the direction sought with a large enough effect; inconclusive = small, poorly fitted or top-dose-only effect, or another doubt; inactive = no such curve, though single readings can be large or run the other way.
Allowed answers: active, inactive

Observe how each entry below is paired with its result.
Cn1cc(-c2ccc3nnc(Sc4ccc5ncccc5c4)n3n2)cn1    inactive
CN1C(=O)C(Cc2c[nH]c3ccccc23)NC1=S (stereo not drawn)    inactive
O=C(O)c1ccc(O)c2ncc(N3CCOCC3)cc12    inactive
CC(C)Oc1cc(Nc2nc(N[C@@H](C)c3ccc(F)cn3)ncc2Cl)[nH]n1    active

Which outcome did this test record for the compound `COc1c(C)cnc(Cn2cnc3c(Cl)nc(N)nc32)c1C` ?
inactive

* * *

Assay: qHTS profiling of the MIPE4 collection as inhibitors of Plasmodium falciparum (DD2) proliferation (Rep 2) (AID 743346)
Settings: P. falciparum Dd2 in erythrocytes, SYBR Green DNA, 72 h; at 28.5 µM (top of the series) unless noted
Attribute: parasite growth, % of control (lower = inhibition)
Quick note: give the figure in %, leave out the unit.

Cc1c(-c2cccc3c(CCCOc4cccc5ccccc45)c(C(=O)O)n(Cc4cccnc4)c23)c(COc2ccc(N3CCN([S+](=O)([O-])N(C)C)CC3)cc2)nn1C    15.4
Cc1nc(NC(=O)N2CCC[C@@H]2C(N)=O)sc1-c1csc(C(C)(C)C)n1    28.5
O=C1CCCC(=O)C1C(=O)c1ccc(C(F)(F)F)cc1[N+](=O)[O-]    114

Using the record for `Cc1cccc(Nc2nc(N[C@@H]3CCCC[C@H]3N)ncc2C(N)=O)c1` , state its measured parasite growth, % of control (lower = inhibition).
7.28

Using the record for `Cn1c(=O)c(-c2c(Cl)cccc2Cl)cc2cnc(Nc3cccc(C(=O)O)c3)nc21` , state its measured parasite growth, % of control (lower = inhibition).
19.9

Using the record for `CNC(=O)c1cc(COc2nnc(Nc3ccc(Cl)cc3)c3ccoc23)ccn1` , state its measured parasite growth, % of control (lower = inhibition).
52.9

Using the record for `CN(CC=CC#CC(C)(C)C)Cc1cccc2ccccc12` , state its measured parasite growth, % of control (lower = inhibition).
14.9

Using the record for `COc1ccc(-c2cc(=O)c3c(O)cc(O[C@@H]4O[C@H](CO[C@@H]5O[C@@H](C)[C@H](O)[C@@H](O)[C@@H]5O)[C@@H](O)[C@H](O)[C@@H]4O)cc3o2)cc1O` , state its measured parasite growth, % of control (lower = inhibition).
33.2

* * *

Test: qHTS Screen of the MIPE 4.0 Collection Against Ewings Sarcoma (EW8) (AID 1259255); note: nearly all actives have a fitted effect of over 35% in size;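 for viability: 100% = DMSO-treated cells and 0% = medium-only wells without cells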
Conditions: EW8 Ewing sarcoma viability, CellTiter-Glo, 48 h; series mostly up to 45.8 µM
Inconclusive results are not listed. Active and inactive are the calls of the source. The call rests on the fitted dose curve; in most records, active means well fitted inhibition curve with a large enough effect; inconclusive means small, poorly fitted or top-dose-only effect; inactive means no such curve, though single readings can be large or run the other way.
Allowed answers: 1 for active, -1 for inactive

Observe how each entry below is paired with its result.
COc1c(C)c2c(c(O)c1CC=C(C)CCC(=O)OCCN1CCOCC1)C(=O)OC2    1
CC(C)(C)c1[nH]cnc1C=c1[nH]c(=O)c(=Cc2ccccc2)[nH]c1=O    -1
O=C1CCCC(=O)C1C(=O)c1ccc(C(F)(F)F)cc1[N+](=O)[O-]    -1

Which outcome did this test record for the compound `COc1cc(C=CC(=O)O)ccc1O` ?
-1

Which outcome did this test record for the compound `CN1CC(=O)NC1=NC(=O)Nc1cccc(Cl)c1` ?
-1

Which outcome did this test record for the compound CC1(C)CC(=O)c2c(C(F)(F)F)nn(-c3ccc(C(N)=O)c(NC4CCC(O)CC4)c3)c2C1 (stereo not drawn) ?
1

Which outcome did this test record for the compound `COc1ccc(Cn2ccc3ccc(C(=O)NO)cc32)cc1` ?
1

Which outcome did this test record for the compound `Clc1ccc(C2(c3ccc(-c4cn[nH]c4)cc3)CCNCC2)cc1` ?
1

* * *

Test: qHTS of pediatric cancer cell lines to identify multiple opportunities for drug repurposing: Primary screen for Rh30 cells (AID 1347107); note: nearly all actives have a fitted effect of over 75% in size
Settings: Rh30 rhabdomyosarcoma viability, CellTiter-Glo luminescence, 48 h; series mostly up to 46 µM
Records with an inconclusive call do not appear. Calls of active or inactive are those of the source. Calls come from the whole dose curve; as a rule, active = well fitted cell-killing curve with a large enough effect; inconclusive = small, poorly fitted or top-dose-only effect; inactive = no such curve, though single readings can be large or run the other way.
Allowed answers: 1.0 = active, 0.0 = inactive

Observe how each entry below is paired with its result.
COc1ccc(-c2ccc3ncc4c(c3c2)n(-c2ccc(N3CCNCC3)c(C(F)(F)F)c2)c(=O)n4C)cn1    1.0
Cc1ccc2c(c1)C(=O)[C@]1(O)CCN(c3ccccc3)C1=N2    0.0
Cc1ccc(NC(=O)c2ccc(CN3CCN(C)CC3)cc2)cc1Nc1nc(-c2cccnc2)cs1    0.0
C=C[C@@H]1CN2CCC1C[C@@H]2C(O)c1ccnc2ccc(OC)cc12 (some centres undefined)    0.0
CC(NCCc1ccc(O)cc1)C(O)c1ccc(O)cc1 (centres undefined)    0.0
Nc1ccn([C@@H]2O[C@H](CO)[C@@H](O)[C@H]2O)c(=O)n1    0.0

Which outcome did this test record for the compound `Cn1c(=O)c(-c2c(Cl)cccc2Cl)cc2cnc(Nc3cccc(C(=O)O)c3)nc21` ?
0.0

Which outcome did this test record for the compound `c1ccc(-c2oc3ncnc(NC[C@@H]4CCCO4)c3c2-c2ccccc2)cc1` ?
1.0

Which outcome did this test record for the compound `CC[C@H](C)C(=O)O[C@H]1C[C@H](O)C=C2C=C[C@H](C)[C@H](CC[C@@H](O)C[C@@H](O)CC(=O)O)[C@H]21` ?
0.0

* * *

Test: Primary qHTS for inhibitors of nuclear receptor binding SET domain protein 2 (NSD2) in an RCH-ACV wild type WT cells (2C) (AID 1645877); note: nearly all actives have a fitted effect of over 70% in size
Conditions: RCH-ACV (leukaemia line) NSD2 WT (2C) viability, CellTiter-Glo, 72 h; series mostly up to 44.9 µM
Records with an inconclusive call do not appear. The source made the active and inactive calls. Calls come from the whole dose curve; as a rule, active = well fitted inhibition curve with a large enough effect; inconclusive = small, poorly fitted or top-dose-only effect; inactive = no such curve, though single readings can be large or run the other way.
Allowed answers: 1 for active, 0 for inactive

Observe how each entry below is paired with its result.
CCOC(=O)c1c(CSc2ccccc2)n(C)c2cc(Br)c(O)c(CN(C)C)c12    1
CC[C@H](C)C(=O)O[C@H]1C[C@H](O)C=C2C=C[C@H](C)[C@H](CC[C@@H](O)C[C@@H](O)CC(=O)O)[C@H]21    0
CC(=O)NCCC(=O)N[C@@H](CCC(N)=O)C(=O)N[C@@H](CO)C(=O)N[C@@H](CCC(N)=O)C(=O)N[C@@H](CCC(N)=O)C(=O)N[C@H](C(=O)N[C@@H](Cc1ccccc1)C(=O)N[C@]1(C)CCCCCCC=CCCC[C@@](C)(C(=O)N[C@@H](CCC(N)=O)C(=O)N[C@@H](CC(N)=O)C(N)=O)NC(=O)[C@H](CC(C)C)NC(=O)[C@H](CC(C)C)NC(=O)[C@@H](CCCNC(=N)N)NC(=O)[C@H](Cc2c[nH]c3ccccc23)NC(=O)[C@H](CC(C)C)NC(=O)[C@H](CC(N)=O)NC1=O)[C@H](C)O    0
CCC(=O)NCC[C@@H]1CCc2ccc3c(c21)CCO3    0
CCCCOCCOc1nc(-c2ccc(C(=O)O)c(F)c2)sc1C    0
O=C(O)CCNc1cc(N2CCc3ccccc3CC2)nc(-c2ccccn2)n1    0

Which outcome did this test record for the compound `O=C(Nc1cccc(C(F)(F)F)c1)Nc1cc(S(=O)(=O)NC2CC2)ccc1-c1ccsc1` ?
1

Which outcome did this test record for the compound `CS(=O)(=O)c1ccc(C2=C(c3ccccc3)C(=O)OC2)cc1` ?
0

Which outcome did this test record for the compound `CC(C)C[C@@H](N)[C@H](O)C(=O)N[C@H](C(=O)N[C@H](C(=O)N[C@@H](CC(=O)O)C(=O)O)C(C)C)C(C)C` ?
0

Which outcome did this test record for the compound `CC[C@H](C)n1cc(C)c2c(C(=O)NCc3c(C)cc(C)[nH]c3=O)cc(-c3ccc(N4CCNCC4)nc3)cc21` ?
1

* * *

System: Zika virus NS2B-NS3 protease
Test: Primary screen GU AMC qHTS for Zika virus inhibitors (AID 1347154);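 note: 0% = no-inhibitor control and -100% = no-enzyme control; nearly all actives have a fitted effect of over 70% in size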
Settings: Zika NS2B-NS3 unlinked protease, AMC fluorogenic substrate; series mostly up to 54.1 µM
Inconclusive results are not listed. Active and inactive are the calls of the source. The call rests on the fitted dose curve; in most records, active means well fitted inhibition curve with a large enough effect; inconclusive means small, poorly fitted or top-dose-only effect; inactive means flat fitted curve, though single readings scatter.
Allowed answers: Yes = active, No = inactive

Observe how each entry below is paired with its result.
CN1CC(=O)NC1=NC(=O)Nc1cccc(Cl)c1    No
COc1cc(F)c(C(C)C)cc1-c1ccc(C(F)(F)F)cc1CN1C(=O)O[C@H](c2cc(C(F)(F)F)cc(C(F)(F)F)c2)[C@@H]1C    No
Cc1cnc(Nc2cccc(CN3CCOCC3)c2)nc1Nc1cccc(S(=O)(=O)NC(C)(C)C)c1    No
CN1CCc2c(n(Cc3ccc(C(=O)NO)cc3)c3ccccc23)C1    No
CON(C)C(=O)N1N=C(c2cc(F)ccc2F)S[C@]1(CCCN)c1ccccc1    No
COc1nc(C)cnc1NS(=O)(=O)c1cccnc1-c1ccc(-c2nnco2)cc1    No
NC1(C(=O)N[C@@H](CCO)c2ccc(Cl)cc2)CCN(c2ncnc3[nH]ccc23)CC1    No
CCN1C[C@H](C)n2c(c(O)c3c(=O)n(Cc4ccc(F)c(Cl)c4)nc(C(=O)NC)c32)C1=O    No

Which outcome did this test record for the compound `C[C@@H](N)c1ccc(C(=O)Nc2ccnc3[nH]ccc23)cc1` ?
No

Which outcome did this test record for the compound `CC(C)=CCCC(C)=CCCC(C)=CCCC(C)=CCCC(C)=CCCC(C)=CCCC(C)=CCCC(C)=CCCC(C)=CCO` ?
No

Which outcome did this test record for the compound `Cc1cnc(CNC(=O)c2c(=O)c3ccc(N4CCCN(C)CC4)nc3n3c2sc2ccccc23)cn1` ?
No

Which outcome did this test record for the compound `CN(C)S(=O)(=O)c1ccc2c(c1)C(=Cc1cc3c([nH]1)CCCC3)C(=O)N2` ?
No

Which outcome did this test record for the compound `CN(C)CCN(C)C(=O)c1ccc(NC(=O)Nc2ccc(-c3nc(N4CCOCC4)c4ccn(CC(F)(F)F)c4n3)cc2)cc1` ?
No

Which outcome did this test record for the compound Cc1nn(Cc2ccccc2Cl)c(C)c1CN(C)CC(O)COc1ccc(Cl)cc1 (configuration not stated) ?
No

Which outcome did this test record for the compound `COc1ccc2cc1Oc1ccc(cc1)C[C@H]1c3cc(c(OC)cc3CCN1C)Oc1c(OC)c(OC)cc3c1[C@H](C2)N(C)CC3` ?
No

Which outcome did this test record for the compound `OCCn1cc(-c2ccc3c(c2)CCC3=NO)c(-c2ccncc2)n1` ?
No

Which outcome did this test record for the compound C=C[C@@H]1CN2CCC1C[C@@H]2C(O)c1ccnc2ccc(OC)cc12 (some centres not stated) ?
No
